In this section, each of the compounds is paired with its reported Max Kill (maximum decrease from initial infection level).
# System: S. aureus ATCC 25923
# Protocol Details: Neutropenic murine thigh infection model
# Conditions: 1 mg/kg single intraperitoneal dose
The reply should be a number in Log10 CFU/thigh, with the unit left off.

Compound | Experimental Value
CNC(CC(C)C)C(=O)NC1C(=O)NC(CC(N)=O)C(=O)NC2C(=O)NC3C(=O)NC(C(=O)NC(C(=O)O)c4cc(O)c(CNCCOCCOCCOCCN(C)C)c(O)c4-c4cc3ccc4O)C(O)c3ccc(c(Cl)c3)Oc3cc2cc(c3OC2OC(CO)C(O)C(O)C2OC2CC(C)(NCc3ccc(-c4ccc(Cl)cc4)cc3)C(O)C(C)O2)Oc2ccc(cc2Cl)C1O (centres unmarked) | 0.83

q: Entry CNC(CC(C)C)C(=O)NC1C(=O)NC(CC(N)=O)C(=O)NC2C(=O)NC3C(=O)NC(C(=O)NC(C(=O)O)c4cc(O)c(CNCCOCCOCCN)c(O)c4-c4cc3ccc4O)C(O)c3ccc(c(Cl)c3)Oc3cc2cc(c3OC2OC(CO)C(O)C(O)C2OC2CC(C)(NCc3ccc(-c4ccc(Cl)cc4)cc3)C(O)C(C)O2)Oc2ccc(cc2Cl)C1O (centres unmarked) : reported Max Kill (maximum decrease from initial infection level) = ?
a: 0.59

---

# Test system: Staphylococcus aureus (65 strains)
# Protocol Details: MIC broth microdilution, S. aureus all isolates
# Conditions: S. aureus (65), all resistance subsets
Recorded Endpoint: MIC 50%
The answer should read as a number with its unit following.

Compound | MIC 50%
CNC(CC(C)C)C(=O)NC1C(=O)NC(CC(N)=O)C(=O)NC2C(=O)NC3C(=O)NC(C(=O)NC(C(=O)O)c4cc(O)c(CNCCOCCOCC[N+](C)(C)C)c(O)c4-c4cc3ccc4O)C(O)c3ccc(c(Cl)c3)Oc3cc2cc(c3OC2OC(CO)C(O)C(O)C2OC2CC(C)(NCc3ccc(-c4ccc(Cl)cc4)cc3)C(O)C(C)O2)Oc2ccc(cc2Cl)C1O (stereo not drawn) [Compound 13] | 0.12 µg/mL

q: Entry CNC(CC(C)C)C(=O)NC1C(=O)NC(CC(N)=O)C(=O)NC2C(=O)NC3C(=O)NC(C(=O)NC(C(=O)O)c4cc(O)c(CNCCOCCOCCN)c(O)c4-c4cc3ccc4O)C(O)c3ccc(c(Cl)c3)Oc3cc2cc(c3OC2OC(CO)C(O)C(O)C2OC2CC(C)(NCc3ccc(OCc4ccc(Cl)c(Cl)c4)cc3)C(O)C(C)O2)Oc2ccc(cc2Cl)C1O (stereo not drawn) [Compound 28] : reported MIC 50% = ?
a: 0.06 µg/mL

q: # iterate: CNC(CC(C)C)C(=O)NC1C(=O)NC(CC(N)=O)C(=O)NC2C(=O)NC3C(=O)NC(C(=O)NC(C(=O)O)c4cc(O)c(CNCCOCCOCC[N+](C)(C)C)c(O)c4-c4cc3ccc4O)C(O)c3ccc(c(Cl)c3)Oc3cc2cc(c3OC2OC(CO)C(O)C(O)C2OC2CC(C)(NCc3ccc(OCc4ccc(Cl)c(Cl)c4)cc3)C(O)C(C)O2)Oc2ccc(cc2Cl)C1O (stereo not drawn) [Compound 29]
a: 0.06 µg/mL

q: # iterate: CCCCCCCCCCNCCNC1(C)CC(OC2C(Oc3c4cc5cc3Oc3ccc(cc3Cl)C(O)C3NC(=O)C(NC(=O)C5NC(=O)C(CC(N)=O)NC(=O)C(NC(=O)C(CC(C)C)NC)C(O)c5ccc(c(Cl)c5)O4)c4ccc(O)c(c4)-c4c(cc(O)c(CNCCOCCOCC[N+](C)(C)C)c4O)C(C(=O)O)NC3=O)OC(CO)C(O)C2O)OC(C)C1O (stereo not drawn) [Compound 1]
a: 0.06 µg/mL

q: # iterate: CNC(CC(C)C)C(=O)NC1C(=O)NC(CC(N)=O)C(=O)NC2C(=O)NC3C(=O)NC(C(=O)NC(C(=O)NCCOCCOCCN)c4cc(O)cc(O)c4-c4cc3ccc4O)C(O)c3ccc(c(Cl)c3)Oc3cc2cc(c3OC2OC(CO)C(O)C(O)C2OC2CC(C)(NCc3ccc(-c4ccc(Cl)cc4)cc3)C(O)C(C)O2)Oc2ccc(cc2Cl)C1O (stereo not drawn) [Compound 9]
a: 0.12 µg/mL

q: # iterate: CNC(CC(C)C)C(=O)NC1C(=O)NC(CC(N)=O)C(=O)NC2C(=O)NC3C(=O)NC(C(=O)NC(C(=O)O)c4cc(O)c(CNCCOCCOCCN(C)C)c(O)c4-c4cc3ccc4O)C(O)c3ccc(c(Cl)c3)Oc3cc2cc(c3OC2OC(CO)C(O)C(O)C2OC2CC(C)(NCc3ccc(-c4ccc(Cl)cc4)cc3)C(O)C(C)O2)Oc2ccc(cc2Cl)C1O (stereo not drawn) [Compound 12]
a: 0.12 µg/mL
